Biological target: Proteasome component C5 (Homo sapiens)
Sequence (whole entry): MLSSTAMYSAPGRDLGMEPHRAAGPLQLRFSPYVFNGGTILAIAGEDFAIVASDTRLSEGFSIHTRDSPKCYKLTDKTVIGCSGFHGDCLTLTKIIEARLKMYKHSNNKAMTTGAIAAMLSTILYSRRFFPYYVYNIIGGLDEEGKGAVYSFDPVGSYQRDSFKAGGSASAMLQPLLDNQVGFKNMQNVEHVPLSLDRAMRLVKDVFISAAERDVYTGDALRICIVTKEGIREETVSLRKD
Experiment: Inhibition of caspase-like activity 20S proteasome beta subunit 1 of human MCF7 cells using fluorogenic substrate Z-LLE-AMC at 10 uM after 1 hr by fluorescence analysis relative to control
Assay type: cell-based
Active and inactive are the calls of the source. The rule behind the calls is not given here.
readoutName: inhibition

Previously resolved entries follow.
1) Cc1ccc(NS(=O)(=O)c2ccc(NC3=C(Cl)C(=O)c4ccccc4C3=O)cc2)nc1; inactive
2) O=C1C(Cl)=C(Nc2ccc(S(=O)(=O)Nc3cccc([N+](=O)[O-])c3)cc2)C(=O)c2ccccc21; 7.44%
3) O=C(Nc1nccs1)c1ccc(NC2=C(Cl)C(=O)c3ccccc3C2=O)cc1; 3.59%
4) O=C1C(Cl)=C(Nc2ccc(S(=O)(=O)Nc3cccc(Cl)c3)cc2)C(=O)c2ccccc21; 14.2%
5) CC(C)c1ccccc1NC(=O)c1ccc(NC2=C(Cl)C(=O)c3ccccc3C2=O)cc1; 9.94%

Now turn to the next molecule.
stdin: Form entry - test system: Proteasome component C5 (Homo sapiens); read-out: inhibition; molecule: O=C1C(Cl)=C(Nc2ccc(S(=O)(=O)Nc3ccccn3)cc2)C(=O)c2ccccc21
stdout: 18.8%
